- test-system: human chemokine receptor CCR-3 (Homo sapiens, UniProt P51677)
- Sequence (P51677 1-355): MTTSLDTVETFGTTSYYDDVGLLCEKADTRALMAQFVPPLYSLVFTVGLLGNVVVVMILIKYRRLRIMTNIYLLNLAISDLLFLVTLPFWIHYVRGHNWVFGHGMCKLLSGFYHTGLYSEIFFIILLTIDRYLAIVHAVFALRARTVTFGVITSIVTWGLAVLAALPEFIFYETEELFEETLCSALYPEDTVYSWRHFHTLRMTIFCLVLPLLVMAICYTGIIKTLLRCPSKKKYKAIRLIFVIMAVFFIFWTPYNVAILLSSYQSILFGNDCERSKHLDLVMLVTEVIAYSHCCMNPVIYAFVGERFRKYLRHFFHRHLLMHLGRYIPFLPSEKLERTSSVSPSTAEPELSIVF
Task for the reader: assign each of the following compounds its reported pKi.
# pKi is unitless: minus log10 of the molar concentration; print number only

**Q:** For the compound Fc1ccc(SCCCN2C3CCC2CC(n2c(C4CC4)nc4cc(F)ccc42)C3)cc1 (stereo not drawn) [Example 9] , give its reported pKi.
**A:** 8.00

**Q:** In one line, give reported pKi of the entry Cc1nc2cc(F)ccc2n1C1CC2CCC(C1)N2CCCSc1ccc(F)cc1 (stereo not drawn) [Example 11] .
**A:** 7.85

**Q:** Given the compound CCc1nc2cc(F)ccc2n1C1CC2CCC(C1)N2CCCSc1ccc(F)cc1 (stereo not drawn) [Example 10] , write its reported pKi.
**A:** 8.19
